Molecular target: RAF kinases (Homo sapiens, UniProt P15056)
Sequence (P15056 whole entry): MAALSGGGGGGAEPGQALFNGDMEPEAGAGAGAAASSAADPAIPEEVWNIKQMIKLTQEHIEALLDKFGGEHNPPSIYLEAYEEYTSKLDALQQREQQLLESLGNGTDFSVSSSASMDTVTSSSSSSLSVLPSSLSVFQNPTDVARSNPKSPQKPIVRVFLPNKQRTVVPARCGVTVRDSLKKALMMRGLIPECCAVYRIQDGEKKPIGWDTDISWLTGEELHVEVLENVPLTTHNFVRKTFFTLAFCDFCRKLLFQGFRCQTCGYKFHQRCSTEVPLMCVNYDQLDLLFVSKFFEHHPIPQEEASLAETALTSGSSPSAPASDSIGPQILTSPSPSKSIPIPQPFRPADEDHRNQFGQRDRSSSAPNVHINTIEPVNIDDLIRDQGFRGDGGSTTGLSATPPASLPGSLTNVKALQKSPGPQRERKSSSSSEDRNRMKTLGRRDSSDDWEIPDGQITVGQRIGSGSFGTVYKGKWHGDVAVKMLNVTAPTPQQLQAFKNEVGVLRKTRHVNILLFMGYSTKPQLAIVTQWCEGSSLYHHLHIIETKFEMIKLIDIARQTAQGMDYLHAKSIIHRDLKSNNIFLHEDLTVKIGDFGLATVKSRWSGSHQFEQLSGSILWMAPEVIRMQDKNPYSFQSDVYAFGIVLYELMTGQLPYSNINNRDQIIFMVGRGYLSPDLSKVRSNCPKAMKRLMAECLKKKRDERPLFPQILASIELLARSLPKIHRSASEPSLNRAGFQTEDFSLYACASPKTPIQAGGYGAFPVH
Settings: read-out: BRAF WT Kd; BRAF WT
pKd: −log10 of the molar value.
Hi there, I'd appreciate the recorded pKd for every entry that follows.

Challenge: For COc1cc2ncnc(Sc3cccc(NC(=O)Nc4cc(C(C)(C)C)nn4-c4ccccc4Cl)c3)c2cc1OC , what is its reported pKd?
Response given: < 6.00

Challenge: # lookup: pKd of COc1cc2ncnc(Oc3cccc(NC(=O)Nc4cc(C(C)(CF)CF)on4)c3F)c2cc1OC
Response given: > 6.60

Challenge: Would you kindly share the measured pKd for COc1cc2ncnc(Sc3cccc(NC(=O)Nc4cc(C(C)(C)C)nn4-c4ccccn4)c3)c2cc1OC ?
Response given: < 6.00

Challenge: Please give the measured pKd for this compound: CCOc1cc2ncnc(Oc3cccc(NC(=O)Nc4cc(C(C)(C)F)no4)c3)c2cc1OC
Response given: > 6.60
